Data origin, for the record: paper PMC6222329

# Tested System: AChE (Electrophorus electricus) (Electrophorus electricus, UniProt O42275)
# Sequence (O42275 24-633): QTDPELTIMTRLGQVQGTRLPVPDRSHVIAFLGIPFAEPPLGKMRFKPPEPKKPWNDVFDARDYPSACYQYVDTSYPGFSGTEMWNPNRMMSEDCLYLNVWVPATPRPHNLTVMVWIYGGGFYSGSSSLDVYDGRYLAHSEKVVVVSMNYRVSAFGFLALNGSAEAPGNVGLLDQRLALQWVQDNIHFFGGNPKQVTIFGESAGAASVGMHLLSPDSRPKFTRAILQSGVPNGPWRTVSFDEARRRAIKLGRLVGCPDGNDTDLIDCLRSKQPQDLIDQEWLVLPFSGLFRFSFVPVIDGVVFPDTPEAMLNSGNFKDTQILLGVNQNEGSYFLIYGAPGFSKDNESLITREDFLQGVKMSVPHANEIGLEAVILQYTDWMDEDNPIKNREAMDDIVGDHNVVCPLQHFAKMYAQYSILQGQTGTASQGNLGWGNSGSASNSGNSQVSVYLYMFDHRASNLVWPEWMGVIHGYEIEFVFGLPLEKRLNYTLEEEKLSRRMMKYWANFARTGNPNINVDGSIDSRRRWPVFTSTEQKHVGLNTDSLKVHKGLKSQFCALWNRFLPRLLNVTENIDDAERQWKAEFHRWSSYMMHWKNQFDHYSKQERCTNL
pIC50: −log10 of the molar value.

- Smiles: "O=C(CSC(=S)N1CCN(Cc2ccc(C(F)(F)F)cc2)CC1)Nc1c2ccccc2nc2ccccc12"
  pIC50: 4.34

====

pIC50: −log10 of the molar value.
List of pIC50 tested on UniProt P81908.

- Compound: "Cc1ccc(CN2CCN(C(=S)SCC(=O)Nc3c4ccccc4nc4ccccc34)CC2)cc1"
  pIC50: 5.97
- Compound: "CN(C)CCCN1CCN(C(=S)SCC(=O)Nc2c3ccccc3nc3ccccc23)CC1"
  pIC50: 6.58
- Compound: "CC1CCCCN1C(=S)SCC(=O)Nc1c2ccccc2nc2ccccc12 (stereo not drawn)"
  pIC50: 5.82
- Compound: "O=C(CSC(=S)N1CCN(CCO)CC1)Nc1c2ccccc2nc2ccccc12"
  pIC50: 5.85
- Compound: "O=C(CSC(=S)N1CCN(Cc2ccc(C(F)(F)F)cc2)CC1)Nc1c2ccccc2nc2ccccc12"
  pIC50: 7.82
- Compound: "Nc1c2ccccc2nc2ccccc12 [Aminoacridine, 9-aminoacridine, reference compound]"
  pIC50: 6.63
- Compound: "O=C(CSC(=S)N1CCN(c2ccc(Cl)cc2)CC1)Nc1c2ccccc2nc2ccccc12"
  pIC50: 5.69
- Compound: "CN(C)CCN1CCN(C(=S)SCC(=O)Nc2c3ccccc3nc3ccccc23)CC1"
  pIC50: 6.65
- Compound: "O=C(CSC(=S)N1CCN(C(c2ccccc2)c2ccccc2)CC1)Nc1c2ccccc2nc2ccccc12"
  pIC50: 7.04

====

Listing of recorded BChE (Human) inhibitory activity (%) ± SD by entry.
# Tested System: BChE (Human) (Homo sapiens)
# Construct: purchased Sigma-Aldrich (Steinheim, Germany)
# Sequence (P06276 29-602): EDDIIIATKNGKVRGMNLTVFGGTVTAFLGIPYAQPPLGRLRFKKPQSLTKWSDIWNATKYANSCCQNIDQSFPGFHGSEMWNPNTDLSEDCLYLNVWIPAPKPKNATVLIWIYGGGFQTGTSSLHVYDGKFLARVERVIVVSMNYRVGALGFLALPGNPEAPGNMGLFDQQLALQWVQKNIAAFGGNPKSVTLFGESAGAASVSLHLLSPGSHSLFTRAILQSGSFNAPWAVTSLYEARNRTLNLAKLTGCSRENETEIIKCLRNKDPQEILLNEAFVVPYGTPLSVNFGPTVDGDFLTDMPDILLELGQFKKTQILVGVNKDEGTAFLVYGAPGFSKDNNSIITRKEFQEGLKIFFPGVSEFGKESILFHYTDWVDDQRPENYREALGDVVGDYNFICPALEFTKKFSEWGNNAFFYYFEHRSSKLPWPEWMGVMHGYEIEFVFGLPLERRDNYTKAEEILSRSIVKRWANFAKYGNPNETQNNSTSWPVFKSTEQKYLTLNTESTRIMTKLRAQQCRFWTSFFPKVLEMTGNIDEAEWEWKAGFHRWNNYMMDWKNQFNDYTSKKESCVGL
# Protocol Summary: BChE inhibition, Ellman's method
# Assay type: biochemical
# Setup Conditions: 10^-8 M
Experimental Endpoint: BChE (Human) inhibitory activity (%) ± SD

- Molecule: "CN(C)CCN1CCN(C(=S)SCC(=O)Nc2c3ccccc3nc3ccccc23)CC1"
  Tested System: "BChE (Human) (Homo sapiens)"
  Output Unit: "%"
  Observed Measurement: 30.20
- Molecule: "O=C(CSC(=S)N1CCN(CCO)CC1)Nc1c2ccccc2nc2ccccc12"
  Tested System: "BChE (Human) (Homo sapiens)"
  Output Unit: "%"
  Observed Measurement: 17.89
- Molecule: "CN(C)CCCN1CCN(C(=S)SCC(=O)Nc2c3ccccc3nc3ccccc23)CC1"
  Tested System: "BChE (Human) (Homo sapiens)"
  Output Unit: "%"
  Observed Measurement: 35.28
- Molecule: "O=C(CSC(=S)N1CCN(C(c2ccccc2)c2ccccc2)CC1)Nc1c2ccccc2nc2ccccc12"
  Tested System: "BChE (Human) (Homo sapiens)"
  Output Unit: "%"
  Observed Measurement: 29.11
- Molecule: "CC1CCCCN1C(=S)SCC(=O)Nc1c2ccccc2nc2ccccc12 (stereo not shown)"
  Tested System: "BChE (Human) (Homo sapiens)"
  Output Unit: "%"
  Observed Measurement: 32.40
- Molecule: "Cc1ccc(CN2CCN(C(=S)SCC(=O)Nc3c4ccccc4nc4ccccc34)CC2)cc1"
  Tested System: "BChE (Human) (Homo sapiens)"
  Output Unit: "%"
  Observed Measurement: 24.71
- Molecule: "O=C(CSC(=S)N1CCN(c2ccc(Cl)cc2)CC1)Nc1c2ccccc2nc2ccccc12"
  Tested System: "BChE (Human) (Homo sapiens)"
  Output Unit: "%"
  Observed Measurement: 21.77

====

# Test system: murine fibroblast healthy cell line (NIH3T3)
# Protocol Summary: MTT cell viability assay
# Type: cell-based
# Setup Conditions: 24 h, 0.000316 µM to 1000 µM, read-out: IC50 against NIH3T3
Listing of recorded IC50 by entry.
Experimental Endpoint: IC50

- Molecule: "Cc1ccc(CN2CCN(C(=S)SCC(=O)Nc3c4ccccc4nc4ccccc34)CC2)cc1 [Compound 4o]"
  Observed Measurement: "> 1000 µM"
- Molecule: "O=C(CSC(=S)N1CCN(CCO)CC1)Nc1c2ccccc2nc2ccccc12 [Compound 4e]"
  Observed Measurement: "325 µM"
- Molecule: "O=C(CSC(=S)N1CCN(C(c2ccccc2)c2ccccc2)CC1)Nc1c2ccccc2nc2ccccc12 [Compound 4m]"
  Observed Measurement: "214 µM"
- Molecule: "CN(C)CCN1CCN(C(=S)SCC(=O)Nc2c3ccccc3nc3ccccc23)CC1 [Compound 4a]"
  Observed Measurement: "26.8 µM"
- Molecule: "CN(C)CCCN1CCN(C(=S)SCC(=O)Nc2c3ccccc3nc3ccccc23)CC1 [Compound 4b]"
  Observed Measurement: "25.6 µM"
- Molecule: "O=C(CSC(=S)N1CCN(c2ccc(Cl)cc2)CC1)Nc1c2ccccc2nc2ccccc12 [Compound 4i]"
  Observed Measurement: "> 1000 µM"

====

# Tested System: BChE (Equine) (Equus caballus)
# Construct: purchased Sigma-Aldrich (Steinheim, Germany)
# Protocol Summary: biochemical
# Type: biochemical
# Setup Conditions: 10^-9 M
Listing of recorded BChE (Equine) inhibitory activity (%) ± SD by entry.
Experimental Endpoint: BChE (Equine) inhibitory activity (%) ± SD

- Compound: "CN(C)CCCN1CCN(C(=S)SCC(=O)Nc2c3ccccc3nc3ccccc23)CC1"
  Tested System: "BChE (Equine) (Equus caballus)"
  Observed Measurement: "26.35±0.77%"
- Compound: "Cc1ccc(CN2CCN(C(=S)SCC(=O)Nc3c4ccccc4nc4ccccc34)CC2)cc1"
  Tested System: "BChE (Equine) (Equus caballus)"
  Observed Measurement: "16.54±0.56%"
- Compound: "CN(C)CCN1CCN(C(=S)SCC(=O)Nc2c3ccccc3nc3ccccc23)CC1"
  Tested System: "BChE (Equine) (Equus caballus)"
  Observed Measurement: "19.69±0.99%"
- Compound: "CC1CCCCN1C(=S)SCC(=O)Nc1c2ccccc2nc2ccccc12 (stereo not shown)"
  Tested System: "BChE (Equine) (Equus caballus)"
  Observed Measurement: "28.50±0.66%"
- Compound: "O=C(CSC(=S)N1CCN(C(c2ccccc2)c2ccccc2)CC1)Nc1c2ccccc2nc2ccccc12"
  Tested System: "BChE (Equine) (Equus caballus)"
  Observed Measurement: "18.98±0.20%"
- Compound: "O=C(CSC(=S)N1CCN(CCO)CC1)Nc1c2ccccc2nc2ccccc12"
  Tested System: "BChE (Equine) (Equus caballus)"
  Observed Measurement: "10.77±0.58%"
- Compound: "O=C(CSC(=S)N1CCN(c2ccc(Cl)cc2)CC1)Nc1c2ccccc2nc2ccccc12"
  Tested System: "BChE (Equine) (Equus caballus)"
  Observed Measurement: "25.73±0.70%"

====

# Tested System: BChE (Human) (Homo sapiens)
# Construct: purchased Sigma-Aldrich (Steinheim, Germany)
# Protocol Summary: BChE inhibition, Ellman's method
# Format: biochemical
# Setup Conditions: 10^-9 M
Listing of recorded BChE (Human) inhibitory activity (%) ± SD by entry.
Experimental Endpoint: BChE (Human) inhibitory activity (%) ± SD

- Compound: "CN(C)CCN1CCN(C(=S)SCC(=O)Nc2c3ccccc3nc3ccccc23)CC1"
  Tested System: "BChE (Human) (Homo sapiens)"
  Observed Measurement: 15.79
- Compound: "CN(C)CCCN1CCN(C(=S)SCC(=O)Nc2c3ccccc3nc3ccccc23)CC1"
  Tested System: "BChE (Human) (Homo sapiens)"
  Observed Measurement: 28.74
- Compound: "CC1CCCCN1C(=S)SCC(=O)Nc1c2ccccc2nc2ccccc12 (stereo not shown)"
  Tested System: "BChE (Human) (Homo sapiens)"
  Observed Measurement: 29.77
- Compound: "Cc1ccc(CN2CCN(C(=S)SCC(=O)Nc3c4ccccc4nc4ccccc34)CC2)cc1"
  Tested System: "BChE (Human) (Homo sapiens)"
  Observed Measurement: 20.80
- Compound: "O=C(CSC(=S)N1CCN(c2ccc(Cl)cc2)CC1)Nc1c2ccccc2nc2ccccc12"
  Tested System: "BChE (Human) (Homo sapiens)"
  Observed Measurement: 20.69
- Compound: "O=C(CSC(=S)N1CCN(CCO)CC1)Nc1c2ccccc2nc2ccccc12"
  Tested System: "BChE (Human) (Homo sapiens)"
  Observed Measurement: 8.72
- Compound: "O=C(CSC(=S)N1CCN(C(c2ccccc2)c2ccccc2)CC1)Nc1c2ccccc2nc2ccccc12"
  Tested System: "BChE (Human) (Homo sapiens)"
  Observed Measurement: 17.00

====

Listing of recorded BChE (Equine) inhibitory activity (%) ± SD by entry.
# Tested System: BChE (Equine) (Equus caballus, UniProt P81908)
# Construct: purchased Sigma-Aldrich (Steinheim, Germany)
# Sequence (P81908 whole entry): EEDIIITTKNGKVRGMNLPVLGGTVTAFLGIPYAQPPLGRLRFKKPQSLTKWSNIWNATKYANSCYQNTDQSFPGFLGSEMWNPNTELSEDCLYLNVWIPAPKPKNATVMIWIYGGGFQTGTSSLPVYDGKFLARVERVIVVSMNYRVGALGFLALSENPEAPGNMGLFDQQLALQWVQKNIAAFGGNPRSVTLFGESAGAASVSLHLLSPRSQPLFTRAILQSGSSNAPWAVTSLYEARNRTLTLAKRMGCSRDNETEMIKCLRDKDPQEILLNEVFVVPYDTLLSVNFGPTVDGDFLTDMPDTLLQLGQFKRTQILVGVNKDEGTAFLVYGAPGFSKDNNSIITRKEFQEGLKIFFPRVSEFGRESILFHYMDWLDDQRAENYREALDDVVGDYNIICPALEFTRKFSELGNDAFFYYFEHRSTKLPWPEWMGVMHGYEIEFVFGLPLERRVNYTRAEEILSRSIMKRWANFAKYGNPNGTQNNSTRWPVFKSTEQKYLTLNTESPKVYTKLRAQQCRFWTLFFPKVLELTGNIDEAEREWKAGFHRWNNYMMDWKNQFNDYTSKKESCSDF
# Protocol Summary: biochemical
# Format: biochemical
# Setup Conditions: 10^-4 M
Experimental Endpoint: BChE (Equine) inhibitory activity (%) ± SD

- Smiles: "O=C(CSC(=S)N1CCN(C2CCCCC2)CC1)Nc1c2ccccc2nc2ccccc12"
  Observed Measurement: 45.88
- Smiles: "O=C(CSC(=S)N1CCN(c2ccccc2)CC1)Nc1c2ccccc2nc2ccccc12"
  Observed Measurement: 12.80
- Smiles: "O=C(CSC(=S)N1CCN(C(=O)c2ccco2)CC1)Nc1c2ccccc2nc2ccccc12"
  Observed Measurement: 39.90
- Smiles: "CN1CCN(C(=S)SCC(=O)Nc2c3ccccc3nc3ccccc23)CC1"
  Observed Measurement: 33.65
- Smiles: "O=C(CSC(=S)N1CCCCC1)Nc1c2ccccc2nc2ccccc12"
  Observed Measurement: 38.40
- Smiles: "O=C(CSC(=S)N1CCN(c2ccc(F)cc2)CC1)Nc1c2ccccc2nc2ccccc12"
  Observed Measurement: 48.65
